TARGET_OR_SYSTEM: Beta-secretase 1 (Homo sapiens)
Sequence (P56817 whole entry): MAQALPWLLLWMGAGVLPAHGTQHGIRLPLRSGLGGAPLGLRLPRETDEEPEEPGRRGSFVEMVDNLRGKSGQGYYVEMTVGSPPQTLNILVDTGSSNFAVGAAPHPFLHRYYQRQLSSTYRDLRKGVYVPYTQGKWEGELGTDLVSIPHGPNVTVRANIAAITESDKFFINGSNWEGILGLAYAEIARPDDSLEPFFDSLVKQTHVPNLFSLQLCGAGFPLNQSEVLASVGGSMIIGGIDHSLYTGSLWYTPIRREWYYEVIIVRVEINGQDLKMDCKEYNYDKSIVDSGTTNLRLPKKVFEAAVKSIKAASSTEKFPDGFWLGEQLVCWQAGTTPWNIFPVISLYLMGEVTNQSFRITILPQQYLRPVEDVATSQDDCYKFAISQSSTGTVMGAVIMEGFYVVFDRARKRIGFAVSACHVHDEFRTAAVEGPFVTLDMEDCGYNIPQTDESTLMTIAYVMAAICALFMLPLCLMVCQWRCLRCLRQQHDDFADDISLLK
ASSAY_EXPLANATION: Inhibition of human recombinant BACE1 using M-2420 as substrate preincubated with enzyme for 1 hr by FRET assay
This listing pairs compounds with measured IC50.
All answers are understood in µM, so give the number only.

Field: example entries. Status: answers known.
>  <SMILES_STR>
CN(Cc1ccccc1)Cc1ccc(/C=C2\Cc3ccc(OCCCCCN4CCC(c5ccccc5)CC4)cc3C2=O)cc1

>  <IC50 (µM)>
13.4

$$$$
>  <SMILES_STR>
CCOC(=O)C1(c2ccccc2)CCN(CCCCCOc2ccc3c(c2)C(=O)/C(=C/c2ccc(CN(C)Cc4ccccc4)cc2)C3)CC1

>  <IC50 (µM)>
8.23

$$$$
>  <SMILES_STR>
CN(Cc1ccccc1)Cc1ccc(/C=C2\Cc3ccc(OCCCCCN4CCC(=C(c5ccc(F)cc5)c5ccc(F)cc5)CC4)cc3C2=O)cc1

>  <IC50 (µM)>
5.95

$$$$
>  <SMILES_STR>
CN(Cc1ccccc1)Cc1ccc(/C=C2\Cc3ccc(OCCCCCN4CCN(OC(=O)C(C)(C)C)CC4)cc3C2=O)cc1

>  <IC50 (µM)>
3.21

$$$$

IC50 measured on `CN(Cc1ccccc1)Cc1ccc(/C=C2\Cc3ccc(OCCCCCN4CCN(c5ccccc5)CC4)cc3C2=O)cc1` = 11.7

IC50 measured on `CN(Cc1ccccc1)Cc1ccc(/C=C2\Cc3ccc(OCCCCCN4CCN(C(c5ccc(F)cc5)c5ccc(F)cc5)CC4)cc3C2=O)cc1` = 2.49

---

ASSAY_EXPLANATION: Neurotoxicity against human SH-SY5Y cells assessed as inhibition of cell viability after 24 hrs by MTT assay
Type: toxicity, cell-based
CONDITION_DESCRIPTION: SH-SY5Y cells
EXPERIMENTAL_READOUT: IC50 at 24 h (µM)
All answers are understood in µM, so give the number only.

IC50 at 24 h measured on `CN(Cc1ccccc1)Cc1ccc(/C=C2\Cc3ccc(OCCCCCN4CCCCC4)cc3C2=O)cc1` = 23.3

---

Acetylcholinesterase (Homo sapiens, UniProt P22303) pIC50 data
Sequence (P22303 whole entry): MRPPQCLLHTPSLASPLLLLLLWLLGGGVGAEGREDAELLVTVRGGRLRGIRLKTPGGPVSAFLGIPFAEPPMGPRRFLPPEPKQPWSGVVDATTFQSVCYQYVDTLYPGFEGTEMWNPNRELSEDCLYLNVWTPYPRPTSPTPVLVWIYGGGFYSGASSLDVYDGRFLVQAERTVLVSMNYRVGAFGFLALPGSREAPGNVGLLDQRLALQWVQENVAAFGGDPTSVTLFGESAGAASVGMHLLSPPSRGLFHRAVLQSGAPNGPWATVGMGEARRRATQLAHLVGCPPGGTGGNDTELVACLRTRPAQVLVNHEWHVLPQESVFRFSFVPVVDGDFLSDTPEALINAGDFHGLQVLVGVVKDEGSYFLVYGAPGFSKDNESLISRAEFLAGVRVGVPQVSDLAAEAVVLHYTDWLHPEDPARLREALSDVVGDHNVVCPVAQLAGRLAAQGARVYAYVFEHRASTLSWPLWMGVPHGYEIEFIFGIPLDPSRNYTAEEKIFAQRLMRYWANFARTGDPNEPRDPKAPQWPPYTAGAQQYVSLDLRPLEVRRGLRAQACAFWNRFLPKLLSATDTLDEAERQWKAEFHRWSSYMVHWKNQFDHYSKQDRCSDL
Just so you know, pIC50 here is -log10 of the concentration in molar units; reply with that number alone.

>  <SMILES_STR>
CN(Cc1ccccc1)Cc1ccc(/C=C2\Cc3ccc(OCCCCCN4CCC(c5ccccc5)CC4)cc3C2=O)cc1

>  <pIC50>
4.21

$$$$

Next up:
Recorded pIC50 for `CN(Cc1ccccc1)Cc1ccc(/C=C2\CCc3cc(OCCCCCN4CCN(Cc5ccc(F)cc5)CC4)ccc3C2=O)cc1` on Acetylcholinesterase (Homo sapiens, UniProt P22303) was 5.11
